Biological target: β-catenin/BCL9 PPI (Homo sapiens, UniProt P35222)
Construct: Wild-type full-length β-catenin were cloned into a pET-28b vector carrying a C-terminal 6×histidine; made in house; host or cells: Escherichia coli BL21 DE3 (β-catenin); BCL9 peptide chemically synthesized
Sequence (P35222 1-781): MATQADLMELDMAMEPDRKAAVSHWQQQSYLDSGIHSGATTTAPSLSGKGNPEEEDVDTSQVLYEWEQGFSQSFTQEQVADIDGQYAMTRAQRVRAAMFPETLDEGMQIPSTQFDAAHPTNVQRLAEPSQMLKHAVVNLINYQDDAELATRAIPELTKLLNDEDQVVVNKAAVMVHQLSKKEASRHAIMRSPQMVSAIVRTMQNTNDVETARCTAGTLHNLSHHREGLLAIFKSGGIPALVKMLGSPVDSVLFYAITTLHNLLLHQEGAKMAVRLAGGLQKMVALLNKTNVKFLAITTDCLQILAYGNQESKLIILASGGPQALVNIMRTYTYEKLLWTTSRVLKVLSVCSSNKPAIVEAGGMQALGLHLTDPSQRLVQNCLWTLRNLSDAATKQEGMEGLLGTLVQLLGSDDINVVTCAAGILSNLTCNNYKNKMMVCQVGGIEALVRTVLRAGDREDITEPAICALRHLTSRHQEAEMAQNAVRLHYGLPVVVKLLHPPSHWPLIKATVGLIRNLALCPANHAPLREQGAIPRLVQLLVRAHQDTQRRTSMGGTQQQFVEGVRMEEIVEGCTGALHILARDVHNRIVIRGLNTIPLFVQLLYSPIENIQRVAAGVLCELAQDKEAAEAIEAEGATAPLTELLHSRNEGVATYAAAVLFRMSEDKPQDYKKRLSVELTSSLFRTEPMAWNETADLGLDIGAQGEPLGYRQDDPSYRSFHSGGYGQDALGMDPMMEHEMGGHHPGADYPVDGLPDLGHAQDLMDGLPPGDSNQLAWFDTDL
Experiment: AlphaScreen competitive inhibition assay of the β-catenin/BCL9 PPI
Assay type: binding
Details: Example 1 compounds; experiment 3; mean ± SD, triplicate; Ki derived from IC50 (Nikolovska-Coleska method); read-out: Ki (μM ± SD) experiment 3
Where a name gives a salt, the structure may show the parent alone.
Parameter: Ki. Scope: all listed entries.
measurement_kind: Ki

compound | measurement_kind | reported_measurement
CC(=O)Nc1cc(F)cc(C(=O)N2CCN(C(=O)c3ccc(O[C@H]4CCNC4)c(C4CCCCC4)c3)C(C(=O)NC3CCCCC3)C2)c1 (stereo partly drawn) [Compound 25] | Ki | 390 µM
CC(=O)Nc1cc(F)cc(C(=O)N2CCN(C(=O)c3ccc(O[C@H]4CCNC4)c(C4CCCCC4)c3)C(C(=O)N(C)Cc3ccccc3)C2)c1 (stereo partly drawn) [Compound 29, trifluoroacetate] | Ki | 560 µM
CC(=O)Nc1cc(F)cc(C(=O)N2CCN(C(=O)c3ccc(O[C@H]4CCNC4)c(C4CCCCC4)c3)C(C(=O)Nc3ccccc3)C2)c1 (stereo partly drawn) [Compound 27, trifluoroacetate] | Ki | 130 µM

====

Biological target: β-catenin/BCL9 PPI (Homo sapiens, UniProt P35222)
Construct: Wild-type full-length β-catenin were cloned into a pET-28b vector carrying a C-terminal 6×histidine; made in house; host or cells: Escherichia coli BL21 DE3 (β-catenin); BCL9 peptide chemically synthesized
Test: AlphaScreen competitive inhibition assay of the β-catenin/BCL9 PPI
Type: binding
Conditions: Example 1 compounds; experiment 3; mean ± SD, triplicate; Ki derived from IC50 (Nikolovska-Coleska method); read-out: Ki (μM ± SD) experiment 3
Structures can show the parent of a compound that is named as a salt.

compound | units_of_measure | value_relation_sign | Ki
CC(=O)Nc1cc(F)cc(C(=O)N2CCN(C(=O)c3ccc(O[C@H]4CCNC4)c(C4CCCCC4)c3)C(C(=O)NCC3CCCCC3)C2)c1 (some centres unmarked) [Compound 26] | µM | = | 410
CCN(C)C(=O)C1CN(C(=O)c2cc(F)cc(NC(C)=O)c2)CCN1C(=O)c1ccc(O[C@H]2CCNC2)c(C2CCCCC2)c1 (some centres unmarked) [Compound 20, trifluoroacetate] | µM | = | 190
CC(=O)Nc1cc(F)cc(C(=O)N2CCN(C(=O)c3ccc(O[C@H]4CCNC4)c(C4CCCCC4)c3)C(C(=O)NCC(C)C)C2)c1 (some centres unmarked) [Compound 23, trifluoroacetate] | µM | > | 1000
CC(=O)Nc1cc(F)cc(C(=O)N2CCN(C(=O)c3ccc(O[C@H]4CCNC4)c(C4CCCCC4)c3)C(C(=O)NCCC(C)C)C2)c1 (some centres unmarked) [Compound 24, trifluoroacetate] | µM | = | 700
CNC(=O)C1CN(C(=O)c2cc(F)cc(NC(C)=O)c2)CCN1C(=O)c1ccc(O[C@H]2CCNC2)c(C2CCCCC2)c1 (some centres unmarked) [Compound 17, trifluoroacetate] | µM | = | 200
CC(=O)Nc1cc(F)cc(C(=O)N2CCN(C(=O)c3ccc(O[C@H]4CCNC4)c(C4CCCCC4)c3)C(C(=O)NCc3ccccc3)C2)c1 (some centres unmarked) [Compound 28] | µM | = | 660
CCNC(=O)C1CN(C(=O)c2cc(F)cc(NC(C)=O)c2)CCN1C(=O)c1ccc(O[C@H]2CCNC2)c(C2CCCCC2)c1 (some centres unmarked) [Compound 19, trifluoroacetate] | µM | = | 110
CC(=O)Nc1cc(F)cc(C(=O)N2CCN(C(=O)c3ccc(O[C@H]4CCNC4)c(C4CCCCC4)c3)C(C(=O)N(C)C(C)C)C2)c1 (some centres unmarked) [Compound 22, trifluoroacetate] | µM | > | 1000
CC(=O)Nc1cc(F)cc(C(=O)N2CCN(C(=O)c3ccc(O[C@H]4CCNC4)c(C4CCCCC4)c3)C(C(=O)NC(C)C)C2)c1 (some centres unmarked) [Compound 21, trifluoroacetate] | µM | = | 410
CC(=O)Nc1cc(F)cc(C(=O)N2CCN(C(=O)c3ccc(O[C@H]4CCNC4)c(C4CCCCC4)c3)C(C(=O)N(C)C)C2)c1 (some centres unmarked) [Compound 18, trifluoroacetate] | µM | = | 73
CNCc1cn(-c2cc(F)cc(C(=O)N3CCN(C(=O)c4ccc(O[C@H]5CCNC5)c(C5CCCCC5)c4)CC3)c2)nn1 [Compound 32, dihydrochloride] | µM | > | 1000
